# assay-details: Quantitative High-Throughput drug screen in 47 multiple myeloma cell lines against the NCATS MIPE library collection: KMS28PE_JCRB cell viability assay (AID 1918983); further: nearly all actives have a fitted effect of over 35% in size
# condition-label: KMS28PE multiple myeloma viability, CellTiter-Glo ATP, 48 h; series mostly up to 45.8 µM
Records with an inconclusive call do not appear. Calls of active or inactive are those of the source. The call rests on the fitted dose curve; in most records, active means well fitted cell-killing curve with a large enough effect; inconclusive means small, poorly fitted or top-dose-only effect, or effect the other way; inactive means no such curve, though single readings can be large or run the other way.
Classes used: active, inactive

{"columns": ["compound", "cat"],
 "data": [
  ["CC(=O)N[C@H]1[C@@H]([C@H](O)[C@H](O)CO)OC(C(=O)O)=C[C@@H]1N=C(N)N", "inactive"],
  ["NC(=O)c1ncn([C@@H]2O[C@H](CO)[C@@H](O)[C@@H]2O)c1N", "inactive"],
  ["COc1cc2ncnc(Nc3cccc(Br)c3)c2cc1OC", "active"],
  ["C#Cc1cccc(Nc2ncnc3cc(OCCOC)c(OCCO)cc23)c1", "active"],
  ["Cc1cc(O)c2c(c1)C(=O)c1cccc(O)c1C2=O", "inactive"],
  ["O=C1CSC(=O)N1C(CCc1ccncc1)COc1ccc(-c2cccc([N+](=O)[O-])c2)cc1 (stereo not given)", "active"],
  ["CCS(=O)(=O)Nc1ccc2[nH]c(O)c(C(=Nc3ccc(CN4CCCCC4)cc3)c3ccccc3)c2c1", "active"],
  ["COC(=O)[C@H](CCCN=C(N)N)NS(=O)(=O)c1ccc(C)cc1", "inactive"],
  ["CN(C)c1ccc2cc(C(=O)N[C@@H](CCCN=C(N)CCl)C(=O)NCc3ccccc3)ccc2c1", "active"],
  ["O=c1[nH]c(=O)n([C@H]2C[C@@H](O)[C@@H](CO)O2)cc1F", "active"]
]}

###

# assay-details: qHTS of pediatric cancer cell lines to identify multiple opportunities for drug repurposing: Confirmatory screen for Rh41 cells (AID 1347123);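 further: 48 h compound exposure; nearly all actives have a fitted effect of over 60% in size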
# condition-label: Rh41 rhabdomyosarcoma cells, viability/cytotoxicity qHTS; series mostly up to 45.9 µM
Inconclusive results are not listed. Activity calls are given as the source filed them. Calls follow the shape of the dose curve; as a rule, active = well fitted cell-killing curve with a large enough effect; inconclusive = small, poorly fitted or top-dose-only effect; inactive = no such curve, though single readings can be large or run the other way.
Classes used: active, inactive

{"columns": ["compound", "cat"],
 "data": [
  ["COc1cc2ncnc(Nc3cccc(Br)c3)c2cc1OC", "active"],
  ["CC(C)(O)Cn1c(NC(=O)c2ccc(-c3cn[nH]c3)s2)nc2cc(CN3CCOCC3)ccc21", "active"],
  ["COc1cccc2c1C(=O)c1c(O)c3c(c(O)c1C2=O)C[C@@](O)(C(=O)CO)C[C@@H]3O[C@H]1C[C@H](N)[C@H](OC2CCCCO2)[C@H](C)O1 (stereo partly specified)", "active"],
  ["COc1cc(OC)c(C=CS(=O)(=O)Cc2ccc(OC)c(NCC(=O)O)c2)c(OC)c1", "active"],
  ["O=C(C=CC#Cc1cccc(NS(=O)(=O)c2ccccc2)c1)NO", "active"],
  ["CCOC(=O)N1CCN([N+]([O-])=NOc2ccc([N+](=O)[O-])cc2C#N)CC1", "active"],
  ["COc1cccc2c1C(=O)c1c(O)c3c(c(O)c1C2=O)C[C@@](O)(C(=O)CO)C[C@H]3O[C@H]1C[C@H](N)[C@H](O)[C@H](C)O1", "active"],
  ["Nc1ncn([C@@H]2O[C@H](CO)[C@@H](O)[C@@H]2O)c(=O)n1", "active"],
  ["C#CCC(Cc1cnc2nc(N)nc(N)c2n1)c1ccc(C(=O)N[C@@H](CCC(=O)O)C(=O)O)cc1 (stereo partly specified)", "inactive"],
  ["COc1cc(C=CC(=O)CC(=O)C=Cc2ccc(O)c(OC)c2)ccc1O", "active"],
  ["CC(C)NC[C@@H](C(=O)N1CCN(c2ncnc3c2[C@H](C)C[C@H]3O)CC1)c1ccc(Cl)cc1", "active"],
  ["CC(=O)O[C@@]12CO[C@H]1C[C@H](O)[C@@]1(C)C(=O)[C@H](O)C3=C(C)[C@@H](OC(=O)C(O)[C@@H](NC(=O)OC(C)(C)C)c4ccccc4)C[C@@](O)([C@@H](OC(=O)c4ccccc4)[C@@H]21)C3(C)C (stereo partly specified)", "active"],
  ["C[C@H](NCc1ccc2c(c1)nc(NC(=O)c1ccc(-c3cn[nH]c3)s1)n2CCc1ccccc1)C(C)(C)C", "active"],
  ["Oc1cc(-c2nc(-c3ccccc3)[nH]c2-c2ccncc2)ccc1Cl", "active"],
  ["CO[C@@H]1[C@@H](O)[C@H](O)[C@@H](n2c3c(Cl)cccc3c3c4c(c5c6cccc(Cl)c6[nH]c5c32)C(=O)NC4=O)O[C@@H]1CO", "active"],
  ["CC(=O)[C@]1(O)Cc2c(O)c3c(c(O)c2[C@@H](O[C@H]2C[C@H](N)[C@@H](O)[C@H](C)O2)C1)C(=O)c1ccccc1C3=O", "active"]
]}
